A collection of compounds and their measured pIC50
# study.target: IDH1 R132H enzyme (Homo sapiens (Human), UniProt O75874, R132H)
# Sequence (O75874 whole entry R132H): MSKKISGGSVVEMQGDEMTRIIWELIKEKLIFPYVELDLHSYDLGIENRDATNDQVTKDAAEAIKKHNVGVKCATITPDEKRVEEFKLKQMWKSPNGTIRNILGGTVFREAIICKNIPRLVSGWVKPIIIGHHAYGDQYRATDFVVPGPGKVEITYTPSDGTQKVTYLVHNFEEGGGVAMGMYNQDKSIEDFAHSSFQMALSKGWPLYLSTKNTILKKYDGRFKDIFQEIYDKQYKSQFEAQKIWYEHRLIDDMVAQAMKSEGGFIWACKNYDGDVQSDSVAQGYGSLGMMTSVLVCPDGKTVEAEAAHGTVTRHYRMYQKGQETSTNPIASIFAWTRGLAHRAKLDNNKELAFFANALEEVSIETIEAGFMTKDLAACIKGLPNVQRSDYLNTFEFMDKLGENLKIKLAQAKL
# assay.summary: Mutant IDH1 R132H biochemical assay; further: 1.5 nM enzyme
# stated.conditions: NADPH consumption, luminescent readout, 250 μM α-KG, 1 μM NADPH, 32° C., 30 minutes, test range 0.002-10 μM
pIC50: −log10 of the molar value.

Guide cases for pIC50, answers given:
{"columns": ["compound", "study.target", "pIC50"],
 "data": [
  ["COC(=O)CCNC(=O)c1ccc2nc(Nc3ccc(OC(F)(F)F)cc3)n([C@H]3C[C@@H](C)CC(C)(C)C3)c2c1 (racemic) [Example 2-14]", "IDH1 R132H enzyme (Homo sapiens (Human), UniProt O75874, R132H)", "≤ 5.00"],
  ["C[C@@H]1C[C@H](n2c(Nc3ccc(OC(F)(F)F)cc3)nc3ccc(C(=O)Nc4ccc(F)cc4)cc32)CC(C)(C)C1 (racemic) [Example 2-22]", "IDH1 R132H enzyme (Homo sapiens (Human), UniProt O75874, R132H)", "≤ 5.00"]
]}

Read the next record carefully.
Qu. Retrieve pIC50 measured for C[C@@H]1C[C@H](n2c(Nc3ccc(OC(F)(F)F)cc3)nc3ccc(C(=O)NC4CC4)cc32)CC(C)(C)C1 (single isomer, unassigned; enantiomer b) [Example 2-23-2] and print it.
Ans. ≤ 5.00

----------
# study.target: IDH1 R132H enzyme (Homo sapiens (Human), UniProt O75874, R132H)
# assay.summary: Mutant IDH1 R132H biochemical assay; further: 1.5 nM enzyme
# stated.conditions: NADPH consumption, luminescent readout, 250 μM α-KG, 1 μM NADPH, 32° C., 30 minutes, test range 0.002-10 μM
pIC50: −log10 of the molar value.
A collection of compounds and their measured pIC50

Guide cases for pIC50, answers given:
{"columns": ["compound", "study.target", "result"],
 "data": [
  ["C[C@@H]1C[C@H](n2c(Nc3ccc(OC(F)(F)F)cc3)nc3ccc(C(=O)NC4CC4)cc32)CC(C)(C)C1 (single isomer, unassigned; enantiomer a) [Example 2-23-1]", "IDH1 R132H enzyme (Homo sapiens (Human), UniProt O75874, R132H)", "≤ 5.00"],
  ["CCOC(=O)CCN(C)C(=O)c1ccc2nc(Nc3ccc(OC(F)(F)F)cc3)n([C@H]3C[C@@H](C)CC(C)(C)C3)c2c1 (racemic)", "IDH1 R132H enzyme (Homo sapiens (Human), UniProt O75874, R132H)", "≤ 5.00"]
]}

Qu. Retrieve pIC50 measured for C[C@@H]1C[C@H](n2c(Nc3ccc(OC(F)(F)F)cc3)nc3ccc(C(=O)NS(C)(=O)=O)cc32)CC(C)(C)C1 (racemic) and print it.
Ans. ≤ 5.00
